Every entry's value here was drawn from patent US20250092065A1.

Documented IC50 across a set of molecules
Test system: HTT mRNA
Assay: RT-qPCR splicing assay, HTT mRNA canonical (CJ) and alternative (AJ) junction
Assay type: cell-based, human
Conditions: Homo sapiens, HTT canonical junction mRNA, RT-qPCR; read-out: HTT CJ (decrease in CJ mRNA levels, IC50)

Past entries and their recorded results:
- CN[C@H]1CCN(c2ccc3nc(-c4cc5cn(C)nc5c(C)c4O)ncc3n2)C1 (single isomer, unassigned) [Compound 369]: 0.1 to 1 µM
- CN[C@@H]1CCN(c2ccc3nc(-c4cc5cn(C)nc5c(F)c4O)nc(C4CC4)c3c2)C1 [Compound 543]: < 0.1 µM
- Cc1c(O)c(-c2ccc3nc(N4CC[C@@H](NC5CCC5)C4)ccc3n2)cc2cn(C)nc12 (single isomer, unassigned) [Compound 289]: < 0.1 µM

Now look at this entry.
Which IC50 is listed for Cn1cc2cc(-c3cc4ccc(N5CCC(NC(C)(C)C)C5)nc4cn3)c(O)cc2n1 (stereo not shown) [Compound 218] ?
> 10 µM
